B1: library; numbered along this chain (parent)
chain: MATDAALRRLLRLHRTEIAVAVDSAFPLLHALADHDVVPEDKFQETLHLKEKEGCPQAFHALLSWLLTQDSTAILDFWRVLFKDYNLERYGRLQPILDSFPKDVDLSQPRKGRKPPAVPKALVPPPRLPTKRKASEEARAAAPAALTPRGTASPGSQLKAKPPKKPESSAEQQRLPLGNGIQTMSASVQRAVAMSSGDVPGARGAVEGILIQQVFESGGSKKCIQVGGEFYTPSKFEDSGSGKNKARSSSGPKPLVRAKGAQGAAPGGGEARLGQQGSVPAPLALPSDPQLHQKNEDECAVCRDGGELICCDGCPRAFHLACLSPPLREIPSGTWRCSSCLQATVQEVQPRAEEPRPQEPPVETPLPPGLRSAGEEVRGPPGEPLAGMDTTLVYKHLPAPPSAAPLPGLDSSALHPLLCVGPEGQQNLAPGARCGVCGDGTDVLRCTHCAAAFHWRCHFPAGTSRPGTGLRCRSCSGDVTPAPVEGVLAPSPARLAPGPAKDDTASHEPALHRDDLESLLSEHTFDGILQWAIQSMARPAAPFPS

- Variants of: B1
- measurementProtocol: AIRE transcriptional activation functional score (insulin promoter-GFP; nonsense median 0, synonymous median 1) (normalised score); higher = higher AIRE activity (more reporter activation)
- measurementContext: with insulin promoter-GFP reporter in HEK293
Quick reference: AIRE transcriptional activation functional score of the listed items.
Give only the figure.

Some variants with recorded AIRE transcriptional activation functional score:
| mutantCode | assayValue |
| --- | --- |
| P282H | 0.91 |
| Q342H | 0.916 |
| K235S | 0.877 |

Problem: Can you share its AIRE transcriptional activation functional score? I mean this variant: L444N
Solution: 0.882
